TEST_SUMMARY: Terminal plasma and brain concentrations in AC-MES studies (UHPLC-MS/MS)
Assay type: in vivo, mouse
PARTICULARS: CF-1, mouse, in vivo, 20 mg/kg, Study 2D, Lacosamide 20 mg/kg PO, 2 h; read-out: B/P Ratio
PROPERTY_NAME: Kp at 2 h

q: State its Kp at 2 h for this compound: COC[C@@H](NC(C)=O)C(=O)NCc1ccccc1 [Lacosamide, reference compound]
a: 1.12

* * *

TEST_SUMMARY: Plasma and brain concentrations in 6 Hz studies (LC-MS/MS)
Format: in vivo, mouse
PARTICULARS: CF-1, mouse, brain, po, 1 mg/kg, Study 3A, Compound A 1 mg/kg PO, 1 h; read-out: Brain
PROPERTY_NAME: concentration at 1 h (nM)
All answers are understood in nM, so give the number only.

q: State its concentration at 1 h for this compound: Cc1cc(N2CCc3cc(F)ccc3C2)cc(C)c1NC(=O)CC(C)(C)C
a: 90

* * *

TEST_SUMMARY: Terminal plasma and brain concentrations in AC-MES studies (UHPLC-MS/MS)
Type: in vivo, mouse
PARTICULARS: CF-1, mouse, in vivo, 10 mg/kg, Study 2B, Lacosamide 10 mg/kg PO, 2 h; read-out: B/P Ratio
PROPERTY_NAME: Kp at 2 h
Keep the answer to the number alone.

q: State its Kp at 2 h for this molecule: COC[C@@H](NC(C)=O)C(=O)NCc1ccccc1 [Lacosamide, reference compound]
a: 0.21

* * *

TEST_SUMMARY: Plasma and brain concentrations in 6 Hz studies (LC-MS/MS)
Format: in vivo, mouse
PARTICULARS: mouse, brain, intraperitoneal, 300 mg/kg, Studies 3B+3C combined, Levetiracetam 300 mg/kg IP 1 h alone; read-out: Brain
Procedure: Sample Collection and Preparation: Mice were anesthetized by isoflurane inhalation (TECH-018) until they reached a surgical plane of anesthesia. Then a syringe (1 mL syringe with a 22 gauge needle) was inserted under the sternum into the heart (TECH-031). Approximately 0.5 mL of blood was collected, deposited into a K2EDTA tube, and stored on ice. Animals were then euthanized by cervical dislocation (TECH-018). […] Samples were analyzed by a research-grade LC-MS/MS method as follows: […]
PROPERTY_NAME: concentration at 1 h (µM)
All answers are understood in µM, so give the number only.

q: State its concentration at 1 h for this compound: CC[C@@H](C(N)=O)N1CCCC1=O [Levetiracetam, reference compound]
a: 996

* * *

TEST_SUMMARY: Terminal plasma and brain concentrations in AC-MES studies (UHPLC-MS/MS)
Type: in vivo, mouse
PARTICULARS: CF-1, mouse, in vivo, 3 mg/kg, Study 4D; Cenobamate 3 mg/kg single oral dose, 2 h pre-treatment; CF-1 mice; read-out: Mean Plasma
PROPERTY_NAME: concentration at 2 h
Report the figure along with its unit, number first.

q: State its concentration at 2 h for this compound: NC(=O)O[C@@H](Cn1ncnn1)c1ccccc1Cl [Cenobamate, reference compound]
a: 29.6 µM

* * *

TEST_SUMMARY: Terminal plasma and brain concentrations in AC-MES studies (UHPLC-MS/MS)
Format: in vivo, mouse
PARTICULARS: CF-1, mouse, in vivo, Study 2C, analyte Lacosamide; 10 mg/kg PO 2 h + Compound A 3 mg/kg PO 0.5 h; read-out: B/P Ratio
PROPERTY_NAME: Kp at 2 h

q: State its Kp at 2 h for this compound: COC[C@@H](NC(C)=O)C(=O)NCc1ccccc1 [Lacosamide, reference compound]
a: 0.29

These measurements were taken from patent US20220288057A1.
